# Tested on: Salmonella typhimurium
# protocol details: Minimum inhibitory concentration of salt was tested against Salmonella Typhimurium […] at 0.1 M NaH2PO4 adjusted to pH 7.0
# Format: functional
# setup conditions: Salmonella enterica
value type: MIC

Task: So what's the measured MIC for this one? CCCCCCCCCCCCCCCC(=O)OC[N+]1=CN(C)CC1.[Cl-]
Output: > 42.4 µg/mL

Task: Ok, now CCCCCCCCCCCC(=O)OC[n+]1cccc(C(=O)NCC)c1.[Cl-]
Output: 522 µg/mL

Task: Ok, now CCCCCCCCCCCCCCCC(=O)OC[n+]1ccccc1.[Cl-]
Output: 1070 µg/mL

Task: Ok, now CCCCCCCCCCCC(=O)OC[N+]12CCN(CC1)CC2.[Cl-]
Output: 524 µg/mL

Task: Ok, now CCCCCCCCCCCC(=O)OC[N+]12CCC(CC1)CC2.[Cl-]
Output: 262 µg/mL

From: ChEMBL document CHEMBL1121429
